B1: library; numbered along this chain (parent)
chain: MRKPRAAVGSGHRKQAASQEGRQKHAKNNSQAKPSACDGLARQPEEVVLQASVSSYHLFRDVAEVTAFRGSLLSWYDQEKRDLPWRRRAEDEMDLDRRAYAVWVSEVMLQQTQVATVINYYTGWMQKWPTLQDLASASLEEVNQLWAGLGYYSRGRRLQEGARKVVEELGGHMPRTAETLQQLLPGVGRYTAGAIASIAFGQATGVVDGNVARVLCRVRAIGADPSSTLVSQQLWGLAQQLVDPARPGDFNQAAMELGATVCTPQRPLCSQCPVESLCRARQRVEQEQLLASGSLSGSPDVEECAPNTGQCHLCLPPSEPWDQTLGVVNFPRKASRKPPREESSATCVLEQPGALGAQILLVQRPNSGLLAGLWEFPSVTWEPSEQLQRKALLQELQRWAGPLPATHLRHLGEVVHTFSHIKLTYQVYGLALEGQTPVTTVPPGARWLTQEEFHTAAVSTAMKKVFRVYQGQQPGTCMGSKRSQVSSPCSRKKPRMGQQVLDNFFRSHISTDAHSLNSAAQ

variants of: B1; test: 8OG:A repair function score (normalized; synonymous = 0, nonsense = -1) (normalized log-likelihood score); higher = more repair activity (WT-like); conditions: with 8OG:A DNA repair reporter (GFP) in HEK-293 MUTYH KO cells;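 further: cells sorted at 72 h after reporter transfection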
Label y for high-side 8OG:A repair function score (at or above 0.009) and n for low-side 8OG:A repair function score (below it).

[[record]]
variant_descriptor = "R506W"
class = "n"

[[record]]
variant_descriptor = "G471Y"
class = "y"

[[record]]
variant_descriptor = "T455D"
class = "n"

[[record]]
variant_descriptor = "G326V"
class = "n"

[[record]]
variant_descriptor = "E64C"
class = "n"

[[record]]
variant_descriptor = "V214S"
class = "n"

[[record]]
variant_descriptor = "V218I"
class = "n"

[[record]]
variant_descriptor = "E285P"
class = "n"

[[record]]
variant_descriptor = "S298M"
class = "n"

[[record]]
variant_descriptor = "G434F"
class = "y"

[[record]]
variant_descriptor = "G479P"
class = "y"

[[record]]
variant_descriptor = "L215F"
class = "n"

[[record]]
variant_descriptor = "P404I"
class = "y"

[[record]]
variant_descriptor = "K164T"
class = "n"

[[record]]
variant_descriptor = "E140Y"
class = "n"

[[record]]
variant_descriptor = "E433Q"
class = "y"

[[record]]
variant_descriptor = "G123V"
class = "y"

[[record]]
variant_descriptor = "S318A"
class = "y"

[[record]]
variant_descriptor = "R491I"
class = "y"

[[record]]
variant_descriptor = "G297A"
class = "n"

[[record]]
variant_descriptor = "P331N"
class = "n"

